Tested on: CP291
Assay: qHTS profiling for inhibitors of Plasmodium falciparum proliferation (AID 504749); note: nearly all actives have a fitted effect of over 60% in size
Settings: P. falciparum in erythrocytes, SYBR Green DNA, 72 h; series mostly up to 28.7 µM
Records with an inconclusive call do not appear. The source made the active and inactive calls. Calls come from the whole dose curve; as a rule, active = well fitted inhibition curve with a large enough effect; inconclusive = small, poorly fitted or top-dose-only effect; inactive = flat fitted curve, though single readings scatter.
Returns: one label drawn from active, inactive

Look over these answered cases.
O=C(O)CP(=O)(O)O: inactive
C[N+](C)(C)CCOC(=O)CCC(=O)OCC[N+](C)(C)C: inactive
COc1cc2c(cc1OC)-c1cc(=Nc3c(C)cc(C)cc3C)n(C)c(=O)n1CC2: active
COC(=O)C1=C(C)NC(C)=C(C(=O)OC(C)(C)CN(C)CCC(c2ccccc2)c2ccccc2)C1c1cccc([N+](=O)[O-])c1 (stereo unspecified): active
CCCN(CCC)CCc1cccc2c1CC(=O)N2: inactive
O=C(CCNNC(=O)c1ccncc1)NCc1ccccc1: inactive

Query :: What outcome does the record of this test show for CCCCOCCOCCOCc1cc2c(cc1CCC)OCO2 ?
Result :: inactive

Query :: What outcome does the record of this test show for NC(=O)c1ncn([C@@H]2O[C@H](CO)[C@@H](O)[C@H]2O)c1O ?
Result :: inactive

Query :: What outcome does the record of this test show for C[C@]12CCC(=O)C=C1CC[C@@H]1[C@@H]2CC[C@@]2(C)[C@H]1CC[C@]2(O)C(=O)CO ?
Result :: inactive

Query :: What outcome does the record of this test show for Nc1nc(N)c2nc(-c3ccccc3)c(N)nc2n1 ?
Result :: inactive

Query :: What outcome does the record of this test show for C#CCN(C)CCCOc1ccc(Cl)cc1Cl ?
Result :: inactive
